This collection of values is drawn from PubChem BioAssay (NCI).

- System: NCI-H226 lung
- protocol.details: NCI tumour cell line growth inhibition, 48 h; in the data active = GI50 below about 0.43 µM; inactive = the rest
Answer with one of the outcomes given here: 1.0 (active), 0.0 (inactive)

Reference set, count: 5
COc1ccc(C2CC(c3cccc(Nc4ccnc5cc(Cl)ccc45)c3)=NN2c2ccccc2)cc1 (configuration not stated) = 0.0
O=C(/C=C/c1ccco1)c1ccc(Nc2ccnc3cc(Cl)ccc23)cc1 = 0.0
Nc1ccc(Cl)cc1.Nc1ccc(Cl)cc1.Nc1ccc(Cl)cc1.O=C([O-])C(=O)[O-].O=C([O-])C(=O)[O-].[H+].[Ru+5] = 0.0
C=CC[n+]1c(/C=C2\Sc3ccccc3N2C)sc(-c2ccccc2)c1-c1ccccc1 = 1.0
O=C1/C(=C/c2ccc(F)cc2)CN(Cc2cn(CCNc3ccnc4cc(Cl)ccc34)nn2)C/C1=C\c1ccc(F)cc1 = 0.0

*Q* Could you please tell me the result logged for CC(=O)c1c[nH]c2ccc(-c3ccnc(Nc4ccc(NC(=O)c5cccc(F)c5)c(CN5CCOCC5)c4)n3)cc12 in this assay?
*A* 1.0

*Q* Could you please tell me the result logged for Oc1ccc(Br)cc1CN1CCN(Cc2ccc(Cl)cc2)CC1 in this assay?
*A* 0.0

*Q* Could you please tell me the result logged for COc1ccc(-n2cc(-c3ccc(Cl)cc3)[nH]c2=S)cc1Cl in this assay?
*A* 0.0

*Q* Could you please tell me the result logged for CC(=N\O)/C(C)=N/O.CC(=N\O)/C(C)=N/O.[Pd] in this assay?
*A* 0.0

*Q* Could you please tell me the result logged for Cc1c(Br)cccc1NC(=O)c1sc2nc3c(cc2c1N)CN(Cc1ccccc1)CC3 in this assay?
*A* 0.0

*Q* Could you please tell me the result logged for CCCCCCCC(=O)SCC/C=C/[C@@H]1CC(=O)NCc2cccc(n2)CN(Cc2ccc(Cl)cc2)CC(=O)N[C@@H](C(C)C)C(=O)O1 in this assay?
*A* 0.0

*Q* Could you please tell me the result logged for O=C1C=Cc2cc3ccccc3c3cccc1c23 in this assay?
*A* 0.0

----------
- Tested on: SN12C renal
- protocol.details: NCI tumour cell line growth inhibition, 48 h
measured.parameter: TGI (µM)
API: value field is a number in µM; no unit string.

Some entries whose results are on file:
C=CC[n+]1c(/C=C2\Sc3ccccc3N2C)sc(-c2ccccc2)c1-c1ccccc1 = 1.47
O=C1C=Cc2cc3ccccc3c3cccc1c23 = 11.3
CCCCc1ccc(Nc2nc(N)c3[nH]cnc3n2)cc1 = 31.1
CCCCC#Cc1c(I)n(C2OC(CO[Si](C)(C)C(C)(C)C)C3OC(C)(C)OC32)c(=O)[nH]c1=O (stereo not drawn) = 22.2

Field TGI (entry COc1cc(CNc2nc3cc(C(F)(F)F)ccc3nc2C(=O)O)cc(OC)c1OC ) reads 30.2

Field TGI (entry CC(=O)OC1CC[C@@]2(C)C(CC(OC3OC(CO)C(O)C(O)C3O)[C@]3(C)C2CCC24CC23CC[C@H]4C(C)CC(O)[C@@H](O)C(C)(C)O)C1(C)C (stereo partly drawn) ) reads 30.7

Field TGI (entry O=C(NCCc1ccccc1)C(c1csc2ccccc12)N(C(=O)CCl)c1ccc(-c2cnco2)cc1 (stereo not drawn) ) reads 2.03

Field TGI (entry CC(C)CCC[C@@H](C)C1CCC2[C@@H]3CC=C4C[C@@H](OC(=O)CCC(=O)NCC[N+](C)(C)CCCS(=O)(=O)[O-])CC[C@]4(C)C3CC[C@@]21C (stereo partly drawn) ) reads 38.2

----------
Parameter: TGI. Scope: all listed entries.
- System: KM12 colon
- protocol.details: NCI tumour cell line growth inhibition, 48 h

C(=C/c1ccc2nc(-c3ccc(/C=C/C=N/NC4=NCCCN4)cc3)cn2c1)/C=N/NC1=NCCCN1 = > 100 µM
CN(C)CCNc1ccccn1 = > 100 µM
CC(C)(C)NC(=O)C12C3C4C1C1C2C3C41I (stereo not given) = > 100 µM
O=C1CCCc2ccc3c(c21)CC1(Cc2cc4c(cc2C1)CCCC4)C3 = 66.3 µM
O=C(CCCCCCCCC(=O)OCCCn1cc(C(=O)NC(=O)OCc2ccccc2)c(=O)[nH]c1=O)OCCCn1cc(C(=O)NC(=O)OCc2ccccc2)c(=O)[nH]c1=O = > 100 µM

Field TGI (entry CCCc1c(OC)c(O)c2c(=O)cc(OC)c3c4c(OC)cc(=O)c5c(O)c(OC)c(CCC)c(c1c23)c54 ) reads 53.7 µM

Field TGI (entry CC(=O)Nc1ccc(S(=O)(=O)/N=c2/sc(S(N)(=O)=O)nn2C)cc1 ) reads > 100 µM

Field TGI (entry COc1cc(CNc2nc3cc(C(F)(F)F)ccc3nc2C(=O)O)cc(OC)c1OC ) reads 78.2 µM

Field TGI (entry O=C(O)C(C1NCCS1)N1Cc2ccccc2C1 (stereo not given) ) reads > 100 µM

Field TGI (entry O=C(O)CC(Cc1ccccc1)C(=O)O (stereo not given) ) reads > 100 µM

----------
- Test system: XF 498 CNS
- protocol.details: NCI tumour cell line growth inhibition, 48 h
measured.parameter: TGI

COC(=O)c1ccc2n[se]nc2c1 = > 100 µM

Field TGI (entry CCOC(=O)C(=C=Cc1cccs1)C(=O)c1ccccc1 ) reads 32.6 µM

Field TGI (entry Nc1ccc(Cl)cc1.Nc1ccc(Cl)cc1.Nc1ccc(Cl)cc1.O=C([O-])C(=O)[O-].O=C([O-])C(=O)[O-].[H+].[Ru+5] ) reads > 100 µM

Field TGI (entry C[N+](C)(C)CC(=O)NC(=O)N/N=C\C(CC#N)CN(Cc1ccccc1)Cc1ccccc1 (stereo not given) ) reads > 100 µM

Field TGI (entry c1cc(C2O[C@H]3CCCN3[C@@H]2c2ccncc2)ccn1 (stereo not given in full) ) reads > 100 µM

----------
- Test system: CAKI-1 renal
- protocol.details: NCI tumour cell line growth inhibition, 48 h; in the data active = GI50 below about 0.43 µM; inactive = the rest
Answer with one of the outcomes given here: active, inactive

Reference set, count: 6
COc1ccc(/C(C#N)=C/c2nc3c(N4CCOCC4)nc(Cl)nc3n2C)cc1OC = active
O=C(CCCCCn1c2ccccc2c2c3c(c4c5ccccc5[nH]c4c21)C(=O)N(O)C3=O)N1CCOCC1 = inactive
O=C1C=Cc2cc3ccccc3c3cccc1c23 = inactive
COc1cc2c(cc1OC)[C@@H]1[C@H](C2=O)c2ccc([N+](=O)[O-])cc2C(=O)N1CCCBr = active
O=C(/C=C/c1ccco1)c1ccc(Nc2ccnc3cc(Cl)ccc23)cc1 = inactive
COc1cc(Oc2cnc3cc(N)cc(N)c3n2)cc(OC)c1OC = inactive

Could you now look at the following compound, please?
*Q* Could you please tell me the result logged for COc1cc(C2C3=C(COC3=O)N(CCO)c3cc4c(cc32)OCCO4)cc(OC)c1O (configuration not stated) in this assay?
*A* inactive

----------
- Tested on: PC-3 prostate
- protocol.details: NCI tumour cell line growth inhibition, 48 h
Parameter: TGI. Scope: all listed entries.

CC1CN=C(c2ccc3c(c2)Cc2cc(C4=NCC(C)N4)ccc2-3)N1 (stereo unspecified) = > 100 µM

Field TGI (entry c1ccc2c3c(c(N4CCNCC4)nc2c1)CCCC3 ) reads 25.7 µM

Field TGI (entry O=C1CCc2cc([N+](=O)[O-])ccc2O1 ) reads > 100 µM

Field TGI (entry COc1ccc(NC(=O)c2cc(NC(=O)/C=C/c3ccccc3)c(OC)c(OC)c2)cc1 ) reads > 100 µM

Field TGI (entry O=C(O)C(C1NCCS1)N1Cc2ccccc2C1 (stereo unspecified) ) reads > 100 µM

Field TGI (entry COC(=O)[C@@]12CC3CN(Cc4c1[nH]c1ccccc41)C2CC3=O ) reads > 100 µM

----------
- System: IGROV1 ovarian
- protocol.details: NCI tumour cell line growth inhibition, 48 h
measured.parameter: TGI

Some entries whose results are on file:
Cn1c(=O)c2[nH]c(Nc3ccccc3)nc2n(C)c1=O = > 10 µM
COC(=O)c1ccc2c(c1)[n+](=O)c(C(C)=O)c(C(F)(F)F)n2[O-] = 3.39 µM

Here is another compound to look at.
Field TGI (entry O=C1CCCn2c3ccccc3c3ccnc1c32 ) reads > 100 µM

----------
- Test system: HOP-62 NSCLC
- protocol.details: NCI tumour cell line growth inhibition, 48 h
Parameter: TGI. Scope: all listed entries.

Some entries whose results are on file:
COc1cc(C2CC(c3ccc(C)cc3)=NN2C(C)=O)ccc1Oc1ccnc2cc(Cl)ccc12 (stereo not given) = > 100 µM
COC(=O)C(=O)C(C(=O)C(=O)Nc1ccc(Cl)cc1Cl)c1nc2ccc(Cl)cc2[nH]c1=O (stereo not given) = > 100 µM
CS(=O)(=O)c1nc(-c2cc3c(c(S(C)(=O)=O)n2)CCC3)cc2c1CCC2 = > 100 µM
c1ccc2c(c1)N=c1ccccc1=P21c2ccccc2Nc2ccccc21 = 8.32 µM

Here is another compound to look at.
Field TGI (entry O=C1CCCn2c3ccccc3c3ccnc1c32 ) reads > 100 µM
